Tested on: E28 (patient-derived glioblastoma stem cells of classical subtype)
measurementDescription: surviving fraction (nuclei count normalised to DMSO); higher = more cells surviving (less toxic)
measurementConditions: 4.1 nM; exposure time: 72 h
Structures can show the parent of a compound that is named as a salt.
propertyMeasured: surviving fraction
Hey, just send me the number, nothing else.

Clc1ccc(C(Cn2ccnc2)OCc2ccsc2Cl)c(Cl)c1 (configuration not stated)	1.06
N=C(NCCCCCCNC(=N)NC(=N)Nc1ccc(Cl)cc1)NC(=N)Nc1ccc(Cl)cc1	1.05
CCC1=C[C@@H]2CN(C1)Cc1c([nH]c3ccccc13)[C@@](C(=O)OC)(c1cc3c(cc1OC)N(C)[C@H]1[C@@](O)(C(=O)OC)[C@H](OC(C)=O)[C@]4(CC)C=CCN5CC[C@]31[C@@H]54)C2 [Vinorelbine Tartrate]	0.904
O=C1c2c(O)ccc(O)c2C(=O)c2c(NCCNCCO)ccc(NCCNCCO)c21	0.476
CCCCC1C(=O)N(c2ccccc2)N(c2ccc(O)cc2)C1=O (configuration not stated)	1.06
COC(=O)Nc1nc2cc(C(=O)c3ccc(F)cc3)ccc2[nH]1	1.07

Please find the next compound below.
Supply measured surviving fraction of CC[C@@H]1C(=O)N(C)c2cnc(Nc3ccc(C(=O)N[C@H]4CC[C@H](N5CCN(CC6CC6)CC5)CC4)cc3OC)nc2N1C(C)C in your reply.
0.613

###

// reported phenotypic distance per item
Test system: E21 (patient-derived glioblastoma stem cells of mesenchymal subtype)
measurementDescription: phenotypic distance (Euclidean, principal components) from DMSO controls (arbitrary units); higher = stronger morphological change
measurementConditions: 3000 nM; exposure time: 72 h
Counter-ions that a name gives are not always drawn.
Hey, just send me the number, nothing else.

Worked examples follow.
CC(=O)CC(c1ccc([N+](=O)[O-])cc1)c1c(O)c2ccccc2oc1=O (stereo not drawn)	1.11
Cc1cc(C)c(CN2CCc3c(Cl)cc(-c4c(C)noc4C)c(Cl)c3C2=O)c(=O)[nH]1	0.603
COC(=O)C[C@](O)(CCCC(C)(C)O)C(=O)O[C@@H]1C(OC)=C[C@]23CCCN2CCc2cc4c(cc2[C@H]13)OCO4	8.36

Name the recorded phenotypic distance of COc1c(N2CCNC(C)C2)c(F)cc2c(=O)c(C(=O)O)cn(C3CC3)c12 (stereo not drawn) , assay system E21.
0.84

Name the recorded phenotypic distance of N=c1ccn2c(n1)O[C@H]1[C@H](O)[C@@H](CO)O[C@H]12 [Ancitabine hydrochloride] , assay system E21.
6.36

Name the recorded phenotypic distance of CN[C@@H](C)C(=O)N[C@H](C(=O)N1CCC[C@H]1C(=O)N[C@H]1c2ccccc2C[C@H]1OCC#CC#CCO[C@@H]1Cc2ccccc2[C@@H]1NC(=O)[C@@H]1CCCN1C(=O)[C@@H](NC(=O)[C@H](C)NC)C1CCCCC1)C1CCCCC1 , assay system E21.
1.92

Name the recorded phenotypic distance of CN1CCC(NC(=O)c2cc(-c3c(O)cc(O)cc3Oc3ccc([N+](=O)[O-])cc3)on2)CC1 , assay system E21.
5.82

Name the recorded phenotypic distance of COc1cc(NS(C)(=O)=O)ccc1Nc1c2ccccc2nc2ccccc12 , assay system E21.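 Further: cell Painting imaging in 384-well plates, CellProfiler features reduced to at least 20 principal components, Euclidean distance versus same-plate DMSO vehicle wells (0.1% v/v), median over six images per well.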
7.87

###

Tested on: E34 (patient-derived glioblastoma stem cells of proneural subtype)
measurementDescription: surviving fraction (nuclei count normalised to DMSO); higher = more cells surviving (less toxic)
measurementConditions: 1000 nM; exposure time: 72 h
Counter-ions that a name gives are not always drawn.
propertyMeasured: surviving fraction

Worked examples follow.
Nc1ccn([C@H]2CC[C@@H](CO)O2)c(=O)n1 [Zalcitabine]	0.977
CC[C@H]1CN2CCc3cc(OC)c(OC)cc3[C@@H]2C[C@@H]1C[C@H]1NCCc2cc(OC)c(OC)cc21 [Emetine dihydrochloride hydrate]	0.387
C/C(=C\c1csc(C)n1)[C@@H]1C[C@@H]2O[C@]2(C)CCC[C@H](C)[C@H](O)[C@@H](C)C(=O)C(C)(C)[C@@H](O)CC(=O)N1 [Ixabepilone]	0.421
CC(=O)OC[C@H]1O[C@@H]([S-])[C@H](OC(C)=O)[C@@H](OC(C)=O)[C@@H]1OC(C)=O.CCP(CC)CC.[Au+] [Auranofin]	0.993
CC(C)C[C@@H](C(=O)N[C@H](C(=O)OC1CCCC1)c1ccccc1)[C@H](O)C(=O)NO [Tosedostat]	0.8

Supply measured surviving fraction of CC(C)NCC(O)c1cc(O)cc(O)c1 (configuration not stated) [Metaproterenol sulfate, orciprenaline sulfate] in your reply.
1.24

Supply measured surviving fraction of CCN(CC)Cc1ccc(C(=O)N(CCc2ccccc2OC)[C@@H]2CCNC2)cc1 in your reply.
0.786
